target: CHO-XBP1 luciferase reporter, IRE1-XBP1 UPR activation; experiment: XBP1 luciferase reporter activation – CHO-XBP1 cells, luminescence, counter-screen for apoptotic UPR arm activators, dose response (AID 489040);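 also: reporter read after six hours of compound exposure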
The source made the active and inactive calls.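 The calls were made as follows: active = mean half-maximal activating concentration from the dose-response fit at or below a set limit; inactive = the rest.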
EC50 for assorted compounds

| Chemical String | EC50 |
| --- | --- |
| Cc1ccccc1NC(=O)c1ccc(N/N=C/c2ccccc2O)c([N+](=O)[O-])c1 | > 80 µM (inactive) |
| C/C(=N\NC(=O)c1cc2ccccc2cc1O)c1ccccn1 | > 80 µM (inactive) |

Turning to the following compound.
EC50 for O=C(/C(=C/c1ccc(Cl)cc1)c1nc2ccccc2[nH]1)c1ccccc1 is > 80 µM (inactive)

----------
target: CHO-XBP1 luciferase reporter, IRE1-XBP1 UPR activation; assay: XBP1 luciferase reporter activation – CHO-XBP1 cells, luminescence, counter-screen for apoptotic UPR arm activators, dose response (AID 489040);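 also: reporter read after six hours of compound exposure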
Activity calls are given as the source filed them.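 The calls were made as follows: active = mean half-maximal activating concentration from the dose-response fit at or below a set limit; inactive = the rest.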
Use one of these outcomes when replying: active, inactive

A selection of reference data follows.
| Compound | Test Target | Discrete Label |
| --- | --- | --- |
| CCc1nnc(NC(=O)CSc2nc(-c3ccccc3)cc(-c3ccc(OC)cc3)c2C#N)s1 | CHO-XBP1 luciferase reporter, IRE1-XBP1 UPR activation | inactive |
| O=C1/C(=C/c2ccc(N3CCOCC3)o2)SC(=Nc2ccccc2)N1CCc1c[nH]c2ccccc12 | CHO-XBP1 luciferase reporter, IRE1-XBP1 UPR activation | inactive |
| COc1ccc2[nH]cc(C(=O)CCl)c2c1 | CHO-XBP1 luciferase reporter, IRE1-XBP1 UPR activation | inactive |
| CCOC(=O)N1CCN(Cc2ccc(O)c3ncccc23)CC1 | CHO-XBP1 luciferase reporter, IRE1-XBP1 UPR activation | inactive |

How did this test come out for CC1=C(/C=C/C(C)=C/C=C/C(C)=C/C(=O)Nc2ccc(O)cc2)C(C)(C)CCC1 ? inactive

How did this test come out for Cc1ccc2[nH]cc(C(=O)CCl)c2c1 ? inactive

How did this test come out for C/C(=N\NC(=O)c1ccccc1OCc1ccc(F)cc1)c1ccccn1 ? inactive

How did this test come out for C/C(=C\c1ccc(N(C)C)cc1)[N+](=O)[O-] ? inactive

How did this test come out for CC(=O)c1cccc(NC(=O)CSc2ncc(C(=O)Nc3ccccc3)c(=O)n2C)c1 ? inactive

How did this test come out for CCOC(=O)/C=c1\s/c(=C\c2ccc3cc(OC)ccc3c2)c(=O)n1CC(=O)NCC1CCCO1 (centres undefined) ? active

----------
biological target: CHO-XBP1 luciferase reporter, IRE1-XBP1 UPR activation; test: XBP1 luciferase reporter activation – CHO-XBP1 cells, luminescence, counter-screen for apoptotic UPR arm activators, dose response (AID 489040);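 also: reporter read after six hours of compound exposure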
The source made the active and inactive calls.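 Rule for the calls: active = mean half-maximal activating concentration from the dose-response fit at or below a set limit; inactive = the rest.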
Use one of these outcomes when replying: active, inactive

A selection of reference data follows.
| Molecule | Discrete Label |
| --- | --- |
| Nc1cccc(-c2nc3cc(S(=O)(=O)c4ccc5oc(-c6cccc(N)c6)nc5c4)ccc3o2)c1 | inactive |
| O=c1[nH]c(-c2ccc(-c3cccc(Cl)c3)o2)nc2ccccc12 | active |
| O=C(NC1CCCC1)C(c1ccc(F)cc1)N(Cc1ccc(F)cc1)C(=O)CCl (configuration not stated) | inactive |

How did this test come out for COc1ccc(-c2ccc(-c3nc4c(c(=O)[nH]c(=O)n4Cc4ccccc4)n3C)o2)c([N+](=O)[O-])c1 ? inactive

----------
molecular target: CHO-XBP1 luciferase reporter, IRE1-XBP1 UPR activation; experiment: XBP1 luciferase reporter activation – CHO-XBP1 cells, luminescence, counter-screen for apoptotic UPR arm activators, dose response (AID 489040);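 also: reporter read after six hours of compound exposure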
Calls of active or inactive are those of the source.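 How the source made its calls: active means mean half-maximal activating concentration from the dose-response fit at or below a set limit; inactive means the rest.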
Recorded Endpoint: EC50

Use the examples below as a reference point.
| Chemical String | Recorded Endpoint | Result |
| --- | --- | --- |
| COC(=O)c1cc(=O)n(Cc2ccco2)c(=Nc2ccc(F)c(Cl)c2)s1 | EC50 | > 80 µM (inactive) |
| Cc1coc2c1C(=O)C(=O)c1c-2ccc2c(C)cccc12 | EC50 | > 80 µM (inactive) |
| CCCCCCCCCn1c2c(c(=N)c3c1CCC3)CCC2 | EC50 | > 80 µM (inactive) |
| FC(F)(F)c1nnc(-c2ccccc2)nc1Sc1ccccc1 | EC50 | > 80 µM (inactive) |
| CCOC(=O)c1ccc(-c2ccc(/C=N/NC(=O)CN(c3cccc(C)c3)S(C)(=O)=O)o2)cc1 | EC50 | inactive |
| CCCCOC(=O)/C=C\C(=O)NC(N)=O | EC50 | > 80 µM (inactive) |
| CC(C)N=c1scc(-c2cccs2)n1/N=C/c1ccc(O)c(O)c1O | EC50 | > 80 µM (inactive) |
| O=[N+]([O-])/C=C\c1ccc(N2CCOCC2)cc1 | EC50 | > 80 µM (inactive) |

EC50 for O=C(Nc1ccc2oc(-c3ccncc3)nc2c1)c1ccc([N+](=O)[O-])o1 is > 80 µM (inactive)

EC50 for Cc1ccc(-c2nc(SCC(=O)Nc3cc(C)on3)c3c(=O)n(C)c(=O)n(C)c3n2)cc1 is inactive

----------
target: CHO-XBP1 luciferase reporter, IRE1-XBP1 UPR activation; experiment: XBP1 luciferase reporter activation – CHO-XBP1 cells, luminescence, counter-screen for apoptotic UPR arm activators, dose response (AID 489040);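 also: reporter read after six hours of compound exposure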
Activity calls are given as the source filed them.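 The calls were made as follows: active = mean half-maximal activating concentration from the dose-response fit at or below a set limit; inactive = the rest.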
Use one of these outcomes when replying: active, inactive

A selection of reference data follows.
| Compound | Discrete Label |
| --- | --- |
| COc1ccc(C2c3ccc4ccccc4c3Oc3ncn(CCCN(C)C)c(=N)c32)cc1 (stereo not drawn) | inactive |
| CC(C)c1ccc(N2C(=O)CC(Sc3nc4ccccc4o3)C2=O)cc1 (stereo not drawn) | inactive |

Consider the additional compound presented here.
How did this test come out for CC(C)N=c1scc(-c2ccco2)n1/N=C/c1ccc(O)c(O)c1 ? active

----------
molecular target: CHO-XBP1 luciferase reporter, IRE1-XBP1 UPR activation; assay: XBP1 luciferase reporter activation – CHO-XBP1 cells, luminescence, counter-screen for apoptotic UPR arm activators, dose response (AID 489040);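 also: reporter read after six hours of compound exposure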
Active and inactive are the calls of the source.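 The calls were made as follows: active = mean half-maximal activating concentration from the dose-response fit at or below a set limit; inactive = the rest.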
Use one of these outcomes when replying: label 1 for active, label 0 for inactive

| Compound | Discrete Label |
| --- | --- |
| O=C(Nc1nccs1)c1cccc(N2C(=O)c3cccc4c([N+](=O)[O-])ccc(c34)C2=O)c1 | label 0 |
| CC(C)N1CSC(=S)N(Cc2ccccc2)C1 | label 0 |
| Brc1ccccc1CN1CCN(Cc2c[nH]c3ccccc23)CC1 | label 0 |
| Cc1nn(Cc2c(Cl)cccc2Cl)c(C)c1NC(=O)c1cn(-c2ccccc2)nc1-c1ccccc1 | label 0 |
| Cc1cnc(NC(=O)c2cc(S(=O)(=O)N(C)C)ccc2N2CCCC2)s1 | label 1 |

How did this test come out for O=C(Nc1nc2ccc(F)cc2s1)c1ccccn1 ? label 0

How did this test come out for CS(=O)(=O)Oc1ccc2c(c1)O/C(=C\C=C\c1ccccc1)C2=O ? label 0

How did this test come out for Cc1cccc(CS(=O)(=O)c2ncc(Cl)c(C(=O)Nc3ccc(F)cc3)n2)c1 ? label 0

How did this test come out for CS(=O)(=O)c1nc(-c2ccccc2)cc(-c2ccccc2)c1C#N ? label 0

How did this test come out for COC(=O)Oc1ccc(/C=C/C(=O)OC(C)C)cc1OC(=O)OC ? label 0

How did this test come out for O=[N+]([O-])c1cc(O)c2ncccc2c1 ? label 0

How did this test come out for Cc1ccc(-c2cc(NC(=O)CCl)n(-c3ccccc3)n2)cc1 ? label 0

How did this test come out for O=C(Nc1ccc(-c2nc3ncccc3o2)cc1)c1ccc([N+](=O)[O-])o1 ? label 0

How did this test come out for O=C(/C(=C/c1ccc(Cl)cc1)c1nc2ccccc2[nH]1)c1cccs1 ? label 0

----------
target: CHO-XBP1 luciferase reporter, IRE1-XBP1 UPR activation; test: XBP1 luciferase reporter activation – CHO-XBP1 cells, luminescence, counter-screen for apoptotic UPR arm activators, dose response (AID 489040);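 also: reporter read after six hours of compound exposure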
The source made the active and inactive calls.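 How the source made its calls: active means mean half-maximal activating concentration from the dose-response fit at or below a set limit; inactive means the rest.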
Use one of these outcomes when replying: active, inactive

| Compound | Discrete Label |
| --- | --- |
| COC(=O)c1c(NC(=O)CC2Nc3ccccc3NC2=O)sc(C)c1C (stereo unspecified) | inactive |
| O=C1NC(=O)N(c2ccccc2)C(=O)/C1=C\C=C\c1ccccc1 | inactive |
| CC(=O)/C(=N\Nc1ccc(Cl)cc1Cl)Sc1cccc2cccnc12 | inactive |

How did this test come out for Cc1ccc(C(=O)Cn2c(C(=O)/C=C/c3ccccc3)nc3ccccc32)cc1 ? active

How did this test come out for Oc1ccc(CN2CCN(c3ccccc3)CC2)c2cccnc12 ? inactive

How did this test come out for Cc1nc(SCC(=O)Nc2ccc(F)cc2)c(C#N)c(C)c1CC(=O)c1ccc(Br)cc1 ? inactive

How did this test come out for CCn1c(-c2ccccc2)c(C(=O)CCl)c2ccccc21 ? inactive

How did this test come out for CC1CCCCC1N1CN=C(Nc2nc3ccccc3s2)NC1 (stereo unspecified) ? inactive

How did this test come out for O=S(=O)(Nc1cccc2cccnc12)c1ccccc1 ? inactive

How did this test come out for Cn1c(/C=C/c2ccc([N+](=O)[O-])o2)nc2ccccc2c1=O ? inactive

How did this test come out for O=C1NC(=O)N(Cc2ccccc2)C(=O)/C1=C\C=C\c1ccco1 ? inactive

How did this test come out for Cc1cccc(N=Nc2ccc(O)c3ncccc23)c1 ? inactive

How did this test come out for O=C(/C=C1\NC2(CCCC2)Cc2ccccc21)C(=O)N/N=C/c1ccc(O)c(O)c1 ? active
